Examples of variants with documented normalized RNA/DNA level without ligand (log10) follow.
B1: library; a variant is named by its letters at N, in order (parent)
chain: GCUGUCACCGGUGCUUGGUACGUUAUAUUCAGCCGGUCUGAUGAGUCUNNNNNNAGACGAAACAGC

variants of: B1; experiment: normalized RNA/DNA level without ligand (relative to sTRSVctl = 100) (log10 (% of sTRSVctl)); HEK293T overexpressing SLC46A1; higher = less ribozyme self-cleavage, higher mRNA level; details: without (6R,S)-folinic acid; ligand present: no
Lab note: record the figure alone, no unit after it.

Known normalized RNA/DNA level without ligand (log10) results, listed for orientation:
GCUGUCACCGGUGCUUGGUACGUUAUAUUCAGCCGGUCUGAUGAGUCUUUAGUAAGACGAAACAGC 1.95
GCUGUCACCGGUGCUUGGUACGUUAUAUUCAGCCGGUCUGAUGAGUCUAAGGUAAGACGAAACAGC 1.74
GCUGUCACCGGUGCUUGGUACGUUAUAUUCAGCCGGUCUGAUGAGUCUGGCGCGAGACGAAACAGC 2.08
GCUGUCACCGGUGCUUGGUACGUUAUAUUCAGCCGGUCUGAUGAGUCUCUGCAUAGACGAAACAGC 1.97
GCUGUCACCGGUGCUUGGUACGUUAUAUUCAGCCGGUCUGAUGAGUCUUGAUGUAGACGAAACAGC 1.93

*Q* Need normalized RNA/DNA level without ligand (log10), item `GCUGUCACCGGUGCUUGGUACGUUAUAUUCAGCCGGUCUGAUGAGUCUAGACAAAGACGAAACAGC`
*A* 2

*Q* For the variant `GCUGUCACCGGUGCUUGGUACGUUAUAUUCAGCCGGUCUGAUGAGUCUGAGGCGAGACGAAACAGC` , what normalized RNA/DNA level without ligand (log10) is on record?
*A* 2

*Q* Query: normalized RNA/DNA level without ligand (log10); subject: `GCUGUCACCGGUGCUUGGUACGUUAUAUUCAGCCGGUCUGAUGAGUCUGGCCCUAGACGAAACAGC`
*A* 2.1

*Q* GET /values?readout=normalized RNA/DNA level without ligand (log10)&item= `GCUGUCACCGGUGCUUGGUACGUUAUAUUCAGCCGGUCUGAUGAGUCUCUCCUUAGACGAAACAGC`
*A* 2.01

*Q* Data request, read-out normalized RNA/DNA level without ligand (log10), for `GCUGUCACCGGUGCUUGGUACGUUAUAUUCAGCCGGUCUGAUGAGUCUUCUGGGAGACGAAACAGC`
*A* 1.84

*Q* I would be grateful if you could share the reported normalized RNA/DNA level without ligand (log10) for `GCUGUCACCGGUGCUUGGUACGUUAUAUUCAGCCGGUCUGAUGAGUCUAGAGGAAGACGAAACAGC` .
*A* 1.93

*Q* Consider the variant shown here: `GCUGUCACCGGUGCUUGGUACGUUAUAUUCAGCCGGUCUGAUGAGUCUAAUUUGAGACGAAACAGC` What is its recorded normalized RNA/DNA level without ligand (log10)?
*A* 1.95

*Q* Param item = `GCUGUCACCGGUGCUUGGUACGUUAUAUUCAGCCGGUCUGAUGAGUCUGCAAAAAGACGAAACAGC` ; retrieve measured normalized RNA/DNA level without ligand (log10).
*A* 1.99
